Experimental Target: T1, 重组人PLVAP/PV-1蛋白 (human, UniProt Q9BX97 49-442, limits assumed)
T1 construct: Bought reagent (Abcam); Coupled to a CM5 chip in the SPR assay; also called 质膜膜泡关联蛋白
T1 sequence (looked up): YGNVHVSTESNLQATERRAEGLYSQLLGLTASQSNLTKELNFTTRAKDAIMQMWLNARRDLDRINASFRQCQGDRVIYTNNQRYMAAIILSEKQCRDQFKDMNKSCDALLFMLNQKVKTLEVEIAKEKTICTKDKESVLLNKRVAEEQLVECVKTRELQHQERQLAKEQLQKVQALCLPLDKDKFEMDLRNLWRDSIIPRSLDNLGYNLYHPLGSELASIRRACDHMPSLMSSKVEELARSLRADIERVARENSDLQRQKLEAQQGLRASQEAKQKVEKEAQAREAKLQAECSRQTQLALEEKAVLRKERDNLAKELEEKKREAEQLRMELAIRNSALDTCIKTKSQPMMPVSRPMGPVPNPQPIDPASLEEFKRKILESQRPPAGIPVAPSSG
Test: SPR, Biacore T200, PV-1 coupled to CM5 chip, antibody as analyte, 25℃, 1:1 fit
Measured Attribute: 倍数 (fold against HLPV-P00) (fold)
Give a bare numeral; the unit fold is implied.

// returns reported 倍数 (fold against HLPV-P00) for input HLPV-P00 (antibody, IgG1, V domains shown, Full IgG1/kappa antibody, VH fused at its C-terminus to the IgG1 constant region, VL to the kappa constant region; expressed in ExpiCHO-S; also called 原始抗体; not shown: human IgG1 heavy chain constant region, UniProtKB P01857.1; human Kappa light chain constant region, UniProtKB P01834.2) VH: QVQLVQSGAEVKKPGASVKVSCKASGYTFTDYYMYWVRQAPGQGLEWIGEINPTQGDVNFNEMFKSRVTMTVDTSTSTAYMELSSLRSEDTAVYYCTSIHYWGQGTLVTVSS VL: DIVMTQSPSSLSASVGDRVTITCKASQDIKTQLSWYQQKPGKAPKTLIYYATDLADGVPSRFSGSGSGQEFTLTISSLQPEDFATYYCLQHDDRPFTFGQGTKLEIK 1

// returns reported 倍数 (fold against HLPV-P00) for input HLPV-P12 (antibody, IgG1, V domains shown, Full IgG1/kappa antibody; not shown: human IgG1 heavy chain constant region, UniProtKB P01857.1; human Kappa light chain constant region, UniProtKB P01834.2) VH: QVQLVQSGAEVKKPGASVKVSCKASGYTFTDYYMYWVRQAPGQGLEWIGEINPSQGDVNFNEMFKSRVTMTVDTSTSTAYMELSSLRSEDTAVYYCTSIFYWGQGTLVTVSS VL: DIVMTQSPSSLSASVGDRVTITCKASQDIKYQLSWYQQKPGKAPKTLIYYATDRADGVPSRFSGSGSGQEFTLTISSLQPEDFATYYCVQHDDRPFTFGQGTKLEIK 4.1
